Test system: MS2 coat protein
Measurement Protocol: apparent KD of MS2 coat protein; designed switch direction (-1 OFF switch, 1 ON switch): -1; higher = weaker reporter binding
Assay Conditions: Eterna round: R95; input ligand: none
Collected apparent KD of MS2 coat protein values appear next to each entry.
The figure you give is taken to be in nM; do not add the unit.

| Entry Sequence | Readout Unit | Observed |
| --- | --- | --- |
| GAGAAGGUAGGAUAUACGAAUAAAUAGGGUAGUAAUAAUACACAUGAGGAUCACCCAUGUAGAAGGACCAAGAG [Mat - Exclusion 2 - Mod of my Tesla design - D39] (puzzle: Exclusion 2) | nM | 25 |
| GUCGUGACCAAGGAUAUAGCUAGGGAAGGAAAGUUAGAAGGUGGUACAUGAGGAUCACCCAUGUAGUCCACAAA [Dixeatleve] (puzzle: Exclusion 6) | nM | 12.9 |
| AAGUACCGUCACGAUAGUGAUGGUACAACAAGCAGUGACACAUGAGGAUCACCCAUGUCCUCAAUUGCUCGUCUUAU [Sensor 3 - 76] (puzzle: Sensor v3, turn-off variant 2) | nM | 156 |
| UUUAAUUUUUUUUUUUUACAAGCUUUUUGCUCGUCUUAUACAUGAGGAUCACCCAUGUAGGUGAGGGAUAAAUUAUC [JMF 43] (puzzle: Sensor v3, turn-off variant 2) | nM | 27.3 |
| AAAUAAUAGAUAAAAUAAAACAUGAGGAUCACCCAUGUGGGAAGAUGAGGGUGAAACAAGCUUUUUGCUCGUCUUAU (puzzle: Sensor v3, turn-off variant 1) | nM | 46.7 |

# lookup: apparent KD of MS2 coat protein of CAUGAGGUAGGAUAUACGAUAAUAUAGGGUAGAUAUAUAACACAUGAGGAUCACCCAUGUAGAAGGACCAGUAC [Mat - Exclusion 2 - Mod of my Tesla design - D68] (puzzle: Exclusion 2)
34.4

Quick one: GAGGUGGGUUUUCAGAGUAACAUGAGGAUCACCCAUGUAGAAGUUGAAGGUAUCAAGCGAAUGGCUCGUCAAAUGUG [JR_SV3TOV1_Sub048] (puzzle: Sensor v3, turn-off variant 1)
233

Quick one: GAUUAUGCGAGCUUUAGGGACAUGAGGAUCACCCAUGUUCGUCUUAUUGAUCUGGAUACACUAACAUACCUAAAUCU [JMF 13] (puzzle: Sensor v3, turn-off variant 1)
25.2

Quick one: CUCCUCAUGGCGCCUAAACACAUGAGGAUCACCCAUGUACAGGCUUUUUGCCGUCUUAUAAUAAAACCGAGGAGGCG [Atrelele] (puzzle: Sensor v3, turn-off variant 1)
23.6

Quick one: GUGAUAUAGUUAGUGGCCUACAUGAGGAUCACCCAUGUGAGGGAAAUGUUGAGGCGAAAGUUGUGUGCUCGUCUGUA [JR_SV3TOV1_Sub039] (puzzle: Sensor v3, turn-off variant 1)
26.5

---

System: MS2 coat protein
Measurement Protocol: apparent KD of MS2 coat protein, switch OFF state (with FMN for OFF switches, without FMN for ON switches); designed switch direction (-1 OFF switch, 1 ON switch): -1; higher = weaker reporter binding
Assay Conditions: FMN input: 0 or 200 uM; Eterna round: R93 (includes R88 designs)
Property Label: apparent KD of MS2 coat protein (nM)
The figure you give is taken to be in nM; do not add the unit.

# lookup: apparent KD of MS2 coat protein of AAAAGGGCAGGAUAUACAUGAGGAUCACCCAUGUGAAAAAAAAAAAAAAAAAAAAAGUGUAGAAGGGUCAAAAA [Exclusion 3 - Omei 3]
95.4

Quick one: AAGAAACAUGAGGAUCACCCAUGUGAGGAUAUAGAAGAAAGAAAGAAAGAAAGAAGAACUAGAAGGCACAAAGG [Aemilius Rectus]
35.3

Quick one: GUGUACAGAGGAUAUAUAUGAGCUAGGAAACUAGCAACUUCACAUGAGGAUCACCCAUGUAGAAGGCUGUACAC [Ex2: 720]
14.3

---

Tested on: MS2 coat protein
Measurement Protocol: apparent KD of MS2 coat protein; designed switch direction (-1 OFF switch, 1 ON switch): -1; higher = weaker reporter binding
Assay Conditions: input ligand: FMN 200 uM
Returns fulfilled if the recorded apparent KD of MS2 coat protein is greater than or equal to 20 nM, and not fulfilled otherwise.

| Entry Sequence | Group |
| --- | --- |
| CUGUGUAGACAGGAUAUGCUGUACAAAAGUACAGCAGAAGGGUCUACAUGAGGAUCACCCAUGUAUACUUCAUG [)mei Ex6 B24] (Eterna round: R97, puzzle: Exclusion 6) | fulfilled |

Quick check, apparent KD of MS2 coat protein >= 20 nM? UAUUCUAGAUAGGAUAUACUUUUUUUUUUUUUCGUAGAAGGAUCUACAUGAGGAUCACCCAUGUUUUCAGCAGU [JR_E6_Sub012] (Eterna round: R96, puzzle: Exclusion 6)
fulfilled

Quick one: GUAGAGUGAGGAUAUACGAGAUCGAUAGAUCGGCGAUCCAUACAUGAGGAUCACCCAUGUAGAAGGCACUCUAC [Mat - Exclusion 2 - Eli Mod - D2] (Eterna round: R97, puzzle: Exclusion 2)
fulfilled

Quick one: AGAUCUAGGACAGGAUAUAUAGAUGGCUUCAUCGAAGAUGAAGCCAUCACAUGAGGAUCACCCAUGUAGAAGGGUCCUAGAUCA [Omei Exc(NG) 2Av6] (Eterna round: R96, puzzle: Exclusion NG 2)
not fulfilled

Quick one: UAACUUAUUGUAAGGAUAUCGGUCCGAAAGGACAACGAGAAGGUACAUGAGGAUCACCCAUGUGAAAUAAGAAU [Mod of Zala 21 - Jieux - Brourd's Mod of Exclusion 4] (Eterna round: R97, puzzle: Brourd's mod of Exclusion 4)
fulfilled

Quick one: CAGUACUGAGGAUAUACAUGAGGAUCACCCAUGUGUGUGAGAAUUGUAUGAAUGUUAUGUAGAAGGCGGUGCUG [JR_Ex3_Sub033] (Eterna round: R97, puzzle: Exclusion 3)
fulfilled

Quick one: AUAAAACGUGUAGGAUAUGCGUGGCGAAGCUAUGCAGAAGGACAUGAGGAUCACCCAUGUUCUAGCGUCUGCGUACAGAUGCUA [JL eng1 1.35 mod 4] (Eterna round: R96, puzzle: Exclusion NG 1)
not fulfilled

Quick one: CAUCAGGGAGGAUAUACAUAACUAAAAGGCUAGCAGUCCGUACAUGAGGAUCACCCAUGUAGAAGGCCCGAGUA [EX2 B.6] (Eterna round: R97, puzzle: Exclusion 2)
fulfilled

Quick one: CGAAUUCGUUAGGAUAUGAGGCAGAGGUCCGCCUCAGAAGGAAUGACAUGAGGAUCACCCAUGUAGACCCAAGG [Eternabot (Original) Solution 1] (Eterna round: R97, puzzle: Exclusion 6)
not fulfilled

---

System: MS2 coat protein
Measurement Protocol: apparent KD of MS2 coat protein; designed switch direction (-1 OFF switch, 1 ON switch): 1; higher = weaker reporter binding
Assay Conditions: input ligand: microRNA oligo, concentration not stated
Property Label: apparent KD of MS2 coat protein (nM)
The figure you give is taken to be in nM; do not add the unit.

Some entries whose results are on file:
| Entry Sequence | apparent KD of MS2 coat protein (nM) |
| --- | --- |
| AUUAUUUAUGCAGGAUAUGAUUAACAUGAGGAUCACCCAUGUGGUGUUGUGAGUAAGGAGAGUGAUCAGAAGGGCAUUUUUGUU [JMF's solution 53] (Eterna round: R96, puzzle: Same State NG 2) | 438 |
| GCGAAAUGAUGUGACAUGAGGAUCACCCAUGUAACCUCAUGUAAGGAUAUCGGAAAAAAAAAAACCGAGAAGGUAUGGUCACGC [AK SSNG3-V2-27.1] (Eterna round: R96, puzzle: Same State NG 3) | 86.4 |
| GGUCCAUCAUGAGGAUAUGGCACCUUAUUGGUGCCAGAAGGCAUGUAAAUUAUAAUAACAUGAGGAUCACCCAUGUAUUGGACC [Eli NG1ss - 95] (Eterna round: R96, puzzle: Same State NG 1) | 218 |
| AUUUUCAAUGCAGGAUAUGAUUAACAUGAGGAUCACCCAUGUGGUGUUGUGAGUAAGGAGAGUGAUCAGAAGGGCAUUUUUUUU [JMF's solution 97] (Eterna round: R96, puzzle: Same State NG 2) | 371 |
| CUGCUCGUGUGAGGAUAUGCCGCCGUUUCGGCUGCAGAAGGUGCUACGUAACAUGAGGAUCACCCAUGUCUCUGUUGUUUCGUU [salish99_SSNG1_r04_949] (Eterna round: R96, puzzle: Same State NG 1) | 35.2 |
| GCCGCGUUUCGCGCCUACAUGAGGAUCACCCAUGUUUGUAGGCAGGAUAUCGCCCGCUUUGCGGGCGAGAAGGGCUGUUGUGGC [salish99_SSNG3_R04_020] (Eterna round: R96, puzzle: Same State NG 3) | 38.8 |
| UUGCUCAUGUAAGGAUAUGCAGCCGUUUCGGCUGCAGAAGGUACUAUAAUACAUGAGGAUCACCCAUGUCUCUAUUAUUUAGUG [salish99_SSNG1_r04_924] (Eterna round: R96, puzzle: Same State NG 1) | 43.8 |
| AUUAAUUAAUUAAUACAUGAGGAUCACCCAUGUAAUAAGAUCAAGGAUAUCAGCUCGUUUAGAGCUGAGAAGGUGAUCACAUGU [SSNG3/17-B3] (Eterna round: R96, puzzle: Same State NG 3) | 246 |
| CUGAGCAGUCAAGGAUAUCACGUCGAAUAGACGUGAGAAGGUGAUUAAUACAUGAGGAUCACCCAUGUAAUACAUGAAGCUCAG [SSNG1/11-A1] (Eterna round: R96, puzzle: Same State NG 1) | 33.5 |
| AAAUCAAGUAAAACAUGAGGAUCACCCAUGUGAGAAGCUUCCAAGGAUAUGGUAUGCAUGGAAACCCAGAAGGUGGUCAAAGCA [Eternabot solution 29] (Eterna round: R96, puzzle: Same State NG 3) | 181 |

# lookup: apparent KD of MS2 coat protein of UAAAUAAUGUAAGGAUAUACAUGAGGAAUUCUCGUAGAAGGUACAUGACAUGAGGAUCACCCAUGUAUCGCUCAGUAGAGCGUA [Mat - Same State NG 1 - JL mod - D27] (Eterna round: R96, puzzle: Same State NG 1)
48.3

Quick one: GAAAGCAACGGAGGAUAUUCGCGUACGUUGGACGAAGAAGGCCGACAUGAGGAUCACCCAUGUACGAAUCACGCCAUAGCAUUA [Eternabot solution 12] (Eterna round: R96, puzzle: Same State NG 1)
16.4

Quick one: CGCGGUAAGGAAGGAUAUGGGACGAAAACGUACCUAGAAGGUCCACAUGAGGAUCACCCAUGUACCAAGAAAGCCGCGAAAUUA [Cereraus] (Eterna round: R96, puzzle: Same State NG 1)
276

Quick one: GUUACAUGAGGAUCACCCAUGUGUGUGUGGGAGUGAGUGGCUUAGGAUAUCUAUGAUUUAAGUUAAGAGAAGGGAGAUUGUUGU [SS-NG3-LRO04] (Eterna round: R96, puzzle: Same State NG 3)
330

Quick one: CAGAGCCCAUGGGCCUGACAUGAGGAUCACCCAUGUGGCUUUGAGGAUAUAAGCGGAAACACCACUUAGAAGGCGAAGCCUAAC [Bequedbi] (Eterna round: R96, puzzle: Same State NG 3)
37.1

Quick one: UGGUACAUGGGAGGAUAUCAUGUAGAGACAUGAGGAUCACCCAUGUAGAUGGCCGGUAACCGGGAUGAGAAGGCCCAUGUACCU [JL SSNG1 3.65] (Eterna round: R96, puzzle: Same State NG 2)
56.3

Quick one: GUAGCAUACCGAGGAUAUUCAUAUACAUGAGGAUCACCCAUGUUUAUAGGCCGAUUACGGCCUUGGGAGAAGGCGGAAUGCUAC [Xeonanis - 20 Mod25] (Eterna round: R96, puzzle: Same State NG 2)
9.52

Quick one: ACAUGAGAAGGAGGAUAUUUUGUACCUACAUGUGACAUGAGGAUCACCCAUGUGGUAAGUAUGAGAAAGAAGGCCUAGAUAUGU [Equivalence 15 - Jieux - Same State NG 2] (Eterna round: R96, puzzle: Same State NG 2)
21
